- Test system: K562 CRISPRi cells
- EXPERIMENT DESCRIPTION: Constant region variant library pooled growth screen, K562
- Type: cell-based, human
- CONDITION CONTEXT: sgRNA constant region variants; activity relative to the original, un-modified constant region cr995
VALUE TYPE: Mean relative activity
One number for each entry.

{"MOLECULE": "cr054 (nucleic acid, listed as DNA, chemistry not fully specified) guide: GTTTAACCGCTAAGCTGGAAACAGCATAGCAAGTTTAAATAAGGCTAGTCCGTTATCAACTTGAAAAAGTGGCACCGAGTCGGTGCT", "RESULT NUMBER": 1.032}

// below: Mean relative activity requested for another molecule
### Prompt Given the entry cr570 (nucleic acid, listed as DNA, chemistry not fully specified) guide: GTTTAAGAGCTAAGCTGGAAACAGCATAGCAACTTTAAATAAGGCTAGTCCGTTATCAACTTGAAAAAGTGGCTCCGAGTCGGAGCT , report its measured Mean relative activity.
### Response 0.02846

# credit: patent US20220259593A1
